The reported measurements were obtained from paper PMC9688225.

biological target: GluA2 AMPA receptor subunit (flip isoform) (Homo sapiens); construct: expressed in transfected cells; host or cells: HEK293; experiment: Whole-cell patch-clamp electrophysiology, homomeric GluA2 expressed in HEK293 cells; assay type: cell-based; settings: Hill fit, read-out: Log IC50 (converted)
Sequence (P42262 25-883 isoform P42262-2 limits assumed): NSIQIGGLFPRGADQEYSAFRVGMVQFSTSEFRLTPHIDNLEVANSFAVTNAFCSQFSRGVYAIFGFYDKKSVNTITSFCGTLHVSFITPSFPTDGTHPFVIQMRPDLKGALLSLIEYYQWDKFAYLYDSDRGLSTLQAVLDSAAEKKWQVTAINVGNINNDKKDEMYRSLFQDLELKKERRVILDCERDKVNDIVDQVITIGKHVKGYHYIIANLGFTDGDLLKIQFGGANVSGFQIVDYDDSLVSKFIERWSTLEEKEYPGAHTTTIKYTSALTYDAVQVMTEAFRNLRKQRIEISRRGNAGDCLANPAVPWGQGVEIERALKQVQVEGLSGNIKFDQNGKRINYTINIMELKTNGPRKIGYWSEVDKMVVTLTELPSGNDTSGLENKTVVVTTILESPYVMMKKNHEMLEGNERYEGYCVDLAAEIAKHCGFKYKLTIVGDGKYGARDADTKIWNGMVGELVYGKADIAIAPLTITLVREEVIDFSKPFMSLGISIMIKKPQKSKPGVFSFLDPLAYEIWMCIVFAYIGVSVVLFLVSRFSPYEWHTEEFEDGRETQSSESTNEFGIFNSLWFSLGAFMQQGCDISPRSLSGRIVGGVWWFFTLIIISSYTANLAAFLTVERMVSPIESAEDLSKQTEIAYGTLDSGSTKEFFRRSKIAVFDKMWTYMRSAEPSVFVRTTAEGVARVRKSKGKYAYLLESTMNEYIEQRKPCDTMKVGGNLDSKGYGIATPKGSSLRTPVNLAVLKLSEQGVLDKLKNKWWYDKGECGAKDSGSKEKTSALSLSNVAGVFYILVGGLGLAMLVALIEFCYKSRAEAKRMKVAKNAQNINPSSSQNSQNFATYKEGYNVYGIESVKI
measured-quantity: IC50 (µM)
Report only the number, with the unit µM understood.

Q: Assign IC50 to the following record: O=C(CCCCC1CCSS1)OCCCO (centres unmarked) [LA1, 1-Hydroxy-3-Lipo Ester]
Result: 3.63

Q: Output measured IC50 for this item: O=C(CCCCC1CCSS1)OCCCO[N+](=O)[O-] (centres unmarked) [LA2, 1-Nitrooxy–propane-3-lipoyl ester]
Result: 3.55

Q: Provide only the value of recorded IC50 for O=C(CCCCC1CCSS1)OCCCCCCO (centres unmarked) [LA4, 1-Hydroxy-6-Lipoester]
Result: 4.47

Q: State, in one line, measured IC50 of O=C(O)CCCCC1CCSS1 (stereo not drawn) [α-LA, alpha-Lipoic acid, reference compound]
Result: 3.89

Q: State, in one line, measured IC50 of O=C(CCCCC1CCSS1)OCCCCCCO[N+](=O)[O-] (centres unmarked) [LA3, 1-Nitrooxy–Hexane-6-lipoyl ester]
Result: 4.37
